# Test system: RXF 393 renal
# EXPERIMENT DESCRIPTION: NCI-60 one-dose screen, 48 h
# REPORTED CONDITIONS: 10 µM unless noted
Compounds without any hit were thinned out: in the full panel of roughly 83,000, 20% have a hit. Calls of active or inactive are those of the source. How the source made its calls: active means growth percent below 10; inactive means the rest.
# valid calls are label 1 (active), label 0 (inactive); nothing else

Below, 6 compounds whose answers are already recorded.
Input line: Which outcome did this test record for the compound CC1(C)CC(=O)C2=C(C1)OC(C(=O)c1ccccc1)C2c1cccc(Oc2ccccc2)c1 (stereo unspecified) ?
Output line: label 0

Input line: Fill in: this test's call for `CCOC(=O)c1c(C)n2c(=O)cc(C)c3c(OC(C)=O)c(OC(C)=O)cc1c32` is ___
Output line: label 0

Input line: Lab log entry: CCCCCN(CCCCC)CC(O)c1c(Cl)ccc2ccccc12 (stereo unspecified) — outcome as called in the assay?
Output line: label 0

Input line: Can you look up the reported call for COc1ccc(C2CC(=O)Oc3c(OC)c4c(c(OC)c32)OCO4)cc1 (stereo unspecified) for me?
Output line: label 0

Input line: What outcome does the record of this test show for Nc1nc(N)c2c(n1)NC(c1ccc3c(c1)OCO3)CC(c1cccc(Nc3ccncc3)c1)=N2 (stereo unspecified) ?
Output line: label 0

Input line: Which outcome was entered for the compound `c1ccc2[nH]c(-c3ccc(-c4nccc5c4[nH]c4ccccc45)cc3)nc2c1` in this test?
Output line: label 0

Continuing:
Input line: Look up the recorded call for CCCCC#Cc1c(I)n(C2OC(CO[Si](C)(C)C(C)(C)C)C3OC(C)(C)OC32)c(=O)[nH]c1=O (stereo unspecified) in this test.
Output line: label 1

Input line: Tell me the recorded outcome of this test for COc1cc(C2CC(c3cccc(Nc4ccncc4)c3)=Nc3c(N)ncnc3N2)cc(OC)c1OC (stereo unspecified) .
Output line: label 0

Input line: What classification did `O=C(CSc1nnc(-c2ccc(Cl)c(Cl)c2)n1-c1ccccc1)Nc1ccc(C(=O)/C=C/c2ccc(Cl)cc2)cc1` end up with in this test?
Output line: label 0

Input line: I'd appreciate the recorded outcome for `C=CCNc1ccc2c3c(cccc13)C(=O)N(CC=C)C2=O` from this test.
Output line: label 0

Input line: Name the outcome recorded for `O=C(NC1CCCCCC1)c1ccc2c(=O)n3c(nc2c1)CCCCC3` in the assay.
Output line: label 0

Input line: Outcome? `O=C(COc1ccc(/C=C2\Oc3ccccc3C2=O)cc1)Nc1nccs1`
Output line: label 0

====

# Tested on: OVCAR-5 ovarian
# EXPERIMENT DESCRIPTION: NCI-60 one-dose screen, 48 h (100 = growth as untreated, 0 = no growth, -100 = all killed)
# REPORTED CONDITIONS: 10 µM unless noted
The panel holds about 83,000 compounds, 20% with a hit somewhere; the sample as a whole holds those more often.
Measured growth values are reported for all entries that follow.
Just the number please, in %, no unit attached.

Input line: Consider the compound C=C1CC[C@@H]2[C@](C)(COC(C)=O)[C@H](OC(C)=O)CC[C@@]2(C)[C@@H]1CC(Nc1ccc(S(=O)(=O)Nc2nccc(C)n2)cc1)C1=CCOC1=O (some centres undefined) tested on OVCAR-5 ovarian; state its growth.
Output line: 26.9

---
Input line: Check OVCAR-5 ovarian data and give growth for `N#C/C(Sc1nc2sc3c(c2c(=O)n1Cc1ccccc1)CCCC3)=C1/SC=C(c2ccc(Cl)cc2)N1c1ccccc1` .
Output line: 83.7

====

# System: OVCAR-3 ovarian
# EXPERIMENT DESCRIPTION: NCI-60 one-dose screen, 48 h
# REPORTED CONDITIONS: 10 µM unless noted
About 83,000 compounds went through this panel and 20% of them were active in at least one assay; those are over-represented in the sample as a whole. Activity calls are given as the source filed them. Rule for the calls: active = growth percent below 10; inactive = the rest.
The reply should name one outcome from True = active, False = inactive

Input line: What did this assay record as the result for `CCN1CCN(c2nc(NNC(=O)c3ccc(OC)cc3)nc(N3CCN(C(c4ccccc4)c4ccccc4)CC3)n2)CC1` ?
Output line: False

Input line: Hi, do you know how `CCCCCCC/C=N/NC(=O)c1ccc(-n2cc(-c3ccccc3)nn2)cc1` came out in this test?
Output line: False

Input line: Kindly provide the recorded test outcome for the following compound: `Cn1cc(-c2csc(-c3cn(C)c4ccc(F)cc34)n2)c2cnccc21`
Output line: True

Note: attention shifts to another entry.
Input line: Called result for `Cc1ccc(Nc2cc(N)nc(N)n2)cc1`
Output line: False

====

# Tested on: HS 578T breast
# EXPERIMENT DESCRIPTION: NCI-60 one-dose screen, 48 h
# REPORTED CONDITIONS: 10 µM unless noted
The panel holds about 83,000 compounds, 20% with a hit somewhere; the sample as a whole holds those more often. Active and inactive are the calls of the source. How the source made its calls: active means growth percent below 10; inactive means the rest.
# output must be one of active, inactive

These solved cases illustrate the format of a correct answer.
Input line: I'd appreciate the recorded outcome for `O=C(c1ccccc1)[C@@H](c1ccccc1)[C@]1(O)C(=O)Nc2ccccc21` from this test.
Output line: inactive

Input line: Can you look up the reported call for `COc1cc2nc3cc([N+](=O)[O-])ccc3c(NCCCNCCO)c2cc1OC` for me?
Output line: active

Input line: Write down the call the test reported for this molecule. Item: `CN(C)C(=S)NN=C(c1ccccn1)c1ccccn1`
Output line: inactive

New cases:
Input line: Please indicate how the test categorized `CCCc1cc(CCC)n2nc(N)nc2n1` .
Output line: inactive

Input line: Assay result, entry `O=C(Nc1ncc(Cc2ccc(Cl)cc2)s1)c1ccc2c(c1)OCCO2` — outcome?
Output line: inactive

Input line: How was `COc1ccc(-c2cn(Cc3ccc4c(Br)cc(Br)c(O)c4n3)nn2)cc1` classified in this test?
Output line: inactive

Input line: Hi, do you know how C#CCOc1ccc(C2=NN(C)C3N=C(Cl)c4ncn(C)c4N23)cc1OCC#C (stereo not given) came out in this test?
Output line: inactive

Input line: Identify the outcome logged in this assay for the molecule shown: `CCCN1C2CCC1/C(=C\c1ccc(OC)cc1)C(=O)/C2=C/c1ccc(OC)cc1`
Output line: inactive

Input line: State the result this test recorded for CCN1C(=O)N(CC)C2C1NN=c1s/c(=C3\C(=O)N(C)c4ccccc43)c(=O)n12 (stereo not given) .
Output line: inactive

Input line: Hi team, can someone confirm the assay call for CNC1=C([N+](=O)[O-])C(c2ccc(OC)cc2)C(C#N)=C(c2ccc[nH]2)O1 (stereo not given) ?
Output line: inactive

====

# Tested on: TK-10 renal
# EXPERIMENT DESCRIPTION: NCI-60 one-dose screen, 48 h
# REPORTED CONDITIONS: 10 µM unless noted
The panel holds about 83,000 compounds, 20% with a hit somewhere; the sample as a whole holds those more often. Calls of active or inactive are those of the source. The calls were made as follows: active = growth percent below 10; inactive = the rest.
Bench note: report the call from class 1 for active, class 0 for inactive

Input line: Just curious, what result did `CCOc1cc(\C=N/N=C(N)/C(N)=N\N=C/c2ccc(O)c(OCC)c2)ccc1O` get here?
Output line: class 0

Input line: Dear colleague, could you share the recorded outcome for COc1ccccc1/C=C/C1=C(C)CCC(c2ccccc2OC)C1C (centres undefined) when you have a moment?
Output line: class 0

Input line: Kindly provide the recorded test outcome for the following compound: `c1ccc2[nH]c(-c3ccc(-c4nccc5c4[nH]c4ccccc45)cc3)nc2c1`
Output line: class 0

Input line: Please state the recorded outcome for this compound: `O=c1ccc2c(ccc3ncccc32)o1`
Output line: class 0

Input line: Tell me the assay call for `CC(=O)OCCOc1cc(Cl)c(Cl)cc1Cl` please.
Output line: class 0

Input line: // param item: `Nc1n[nH]c2cccc(C#Cc3cccc(C(=O)Nc4ccc(Cl)c(C(F)(F)F)c4)c3)c12` ; yields the recorded call
Output line: class 0

Input line: Call for entry `Nc1ncc(-c2ccc3ncnc(N4CCc5ccc(Cl)cc54)c3c2)cn1` :
Output line: class 1

Input line: Could you check what this test reported for CC(CN)[C@@H]1CC[C@]2(CO)CC[C@]3(C)[C@H](CC[C@@H]4[C@@]5(C)CCC(NCCO)C(C)(C)[C@@H]5CC[C@]43C)[C@@H]12 (some centres undefined) ?
Output line: class 0

Others:
Input line: Outcome? `C=C(C)[C@@H]1CC[C@]2(COC(=O)c3cccnc3)CC[C@]3(C)[C@H](CC[C@@H]4[C@@]5(C)CCCN(C(=O)c6cccnc6)C(C)(C)[C@@H]5CC[C@]43C)[C@@H]12`
Output line: class 0

====

Reported growth values for a set of compounds
# Tested on: NCI/ADR-RES ovarian
# EXPERIMENT DESCRIPTION: NCI-60 one-dose screen, 48 h (100 = growth as untreated, 0 = no growth, -100 = all killed)
# REPORTED CONDITIONS: 10 µM unless noted
About 83,000 compounds went through this panel and 20% of them were active in at least one assay; those are over-represented in the sample as a whole. The source made the active and inactive calls. The calls were made as follows: active = growth percent below 10; inactive = the rest.

Below are worked cases with known answers.
Input line: Please look at CO[C@H]1/C=C/O[C@@]2(C)Oc3c(C)c(O)c4c(O)c(c5c(nc6cc(C)ccn65)c4c3C2=O)NC(=O)/C(C)=C\C=C\[C@H](C)[C@H](O)[C@@H](C)C(O)[C@@H](C)[C@H](OC(C)=O)[C@@H]1C (stereo partly drawn) and tell me its recorded growth on NCI/ADR-RES ovarian.
Output line: 104% (inactive)

Input line: Fill: growth (NCI/ADR-RES ovarian) for this compound `O=C(/C=C/c1ccc(Cl)cc1)c1ccc(Nc2ccnc3cc(Cl)ccc23)cc1`
Output line: 83.5% (inactive)

Input line: Consider the compound `C[C@@H]1N=C(c2ccc(Cl)cc2Cl)Nc2nc3ccccn3c2C1=O` tested on NCI/ADR-RES ovarian; state its growth.
Output line: 44.5% (inactive)

Input line: Lab note: record growth of `O=C(Nc1ncc(Cc2ccccc2)s1)c1cc(-c2ccccc2)nc2ccccc12` tested on NCI/ADR-RES ovarian.
Output line: 87.8% (inactive)

Input line: Report value: growth, system: NCI/ADR-RES ovarian, compound: `O=C(/C=C/c1ccc([N+](=O)[O-])cc1)c1cccc(Nc2nc(Nc3ccccc3)nc(Nc3ccccc3)n2)c1`
Output line: 67.9% (inactive)

Further cases:
Input line: Please report the measured growth for `Cn1ccnc1C(=O)/C=C/c1ccc(C(=O)Nc2ccccc2F)cc1` tested on NCI/ADR-RES ovarian.
Output line: 21.7% (inactive)

Input line: Name the value of growth reported for O=C1C=CC2(O)OC(c3ccccc3)CC(=O)C2=C1O (stereo not drawn) when tested on NCI/ADR-RES ovarian.
Output line: 86% (inactive)

Input line: Give growth only, for `CC(C)(C)n1cc(-c2ccnc(NCCNS(=O)(=O)c3ccc(Br)cc3)c2)c(-c2cccc(O)c2)n1` , using NCI/ADR-RES ovarian data.
Output line: 33% (inactive)

# credit: PubChem BioAssay (NCI)
